- tested_system: anti-CD28 scFv (VH - linker 1 - VL) (biotinylated (site not stated))
- Sequence (scFv, as listed by the source): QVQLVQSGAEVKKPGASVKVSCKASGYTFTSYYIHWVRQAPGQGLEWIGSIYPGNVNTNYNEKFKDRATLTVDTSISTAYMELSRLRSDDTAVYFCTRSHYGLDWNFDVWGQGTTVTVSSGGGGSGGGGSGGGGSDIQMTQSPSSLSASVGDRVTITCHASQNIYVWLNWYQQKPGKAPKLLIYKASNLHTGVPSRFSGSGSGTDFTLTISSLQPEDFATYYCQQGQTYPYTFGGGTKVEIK
- test: phage ELISA; biotinylated anti-CD28 scFv on neutravidin plate, clonal phage supernatant, anti-M13-HRP detection;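 also: before phage addition, wells were pretreated with soluble CD28 protein in blocking buffer, or with blocking buffer only as the comparison, then phage were added without washing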
Where no end group is shown, it is not given here.
Collected CD28 scFv signal values appear next to each entry.
reported_endpoint: CD28 scFv signal

[[record]]
binder = "MNWCPTDLWHECFN (peptide, not shown: large carriers, Clonal phage of the Peptide-9 library) [Phage-162]"
numeric_result = 1.09

[[record]]
binder = "MNWCPSDLWHLCFN (peptide, not shown: large carriers, cysteine pairing not given here; also: displayed as fusion to phage pIII, linker and pIII sequence not given here, Clonal phage of the Peptide-9 library) [Phage-170]"
numeric_result = 0.739

[[record]]
binder = "MDWCPRDLWNVCFA (peptide, not shown: large carriers, Clonal phage of the Peptide-9 library) [Phage-154]"
numeric_result = 1.38

[[record]]
binder = "MDWCPFYLWDECFL (peptide, not shown: large carriers, Clonal phage of the Peptide-9 library) [Phage-165]"
numeric_result = 1.02

[[record]]
binder = "MHWCPRALWHECFN (peptide, not shown: large carriers, Clonal phage of the Peptide-9 library) [Phage-160]"
numeric_result = 1.18

[[record]]
binder = "MNWCPSHLWHMCYF (peptide, not shown: large carriers, cysteine pairing not given here; also: displayed as fusion to phage pIII, linker and pIII sequence not given here, Clonal phage of the Peptide-9 library) [Phage-171]"
numeric_result = 0.702

[[record]]
binder = "MDWCPRHLWDQCFA (peptide, not shown: large carriers, Clonal phage of the Peptide-9 library) [Phage-161]"
numeric_result = 1.12

[[record]]
binder = "MFWCPRYLWHECFN (peptide, not shown: large carriers, Clonal phage of the Peptide-9 library) [Phage-163]"
numeric_result = 1.08

[[record]]
binder = "MDWCPRSLWSYCFH (peptide, not shown: large carriers, Clonal phage of the Peptide-9 library) [Phage-157]"
numeric_result = 1.33

